Tested on: lymphocyte mAChRs
Assay type: binding, human
Settings: read-out: IC50, inhibition of [3H]QNB binding to lymphocyte mAChRs
ASSAY ENDPOINT: pIC50
// pIC50 here means minus log10 of the molar concentration (mol/L)

Field pIC50 (entry [CH3][Hg][Cl] [MeHg, methylmercury] ) reads 5.30

----------
Molecular target: MAO-B (Homo sapiens, UniProt P27338)
Sequence (P27338 whole entry): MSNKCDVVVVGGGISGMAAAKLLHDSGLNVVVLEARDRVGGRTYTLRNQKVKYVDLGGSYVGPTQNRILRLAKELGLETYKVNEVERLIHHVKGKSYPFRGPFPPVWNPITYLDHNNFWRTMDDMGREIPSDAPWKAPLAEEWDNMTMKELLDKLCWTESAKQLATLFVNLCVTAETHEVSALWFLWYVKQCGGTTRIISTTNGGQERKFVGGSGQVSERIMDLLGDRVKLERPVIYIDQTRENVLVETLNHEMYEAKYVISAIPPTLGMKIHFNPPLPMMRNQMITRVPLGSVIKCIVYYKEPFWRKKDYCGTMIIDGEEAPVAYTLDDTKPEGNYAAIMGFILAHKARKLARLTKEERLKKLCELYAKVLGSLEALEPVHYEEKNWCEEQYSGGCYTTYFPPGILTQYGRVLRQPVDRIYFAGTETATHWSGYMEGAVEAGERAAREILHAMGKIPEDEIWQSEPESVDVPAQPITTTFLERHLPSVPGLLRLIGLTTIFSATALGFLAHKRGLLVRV
Assay: Platelet MAO-B activity
Format: biochemical
Conditions: human platelets in vitro; not modified by MeHg addition
The entries below come with measured LOAEL toward MAO-B values attached.
Answer in µM, number only, no unit symbol.

{"COMPOUND": "Oc1c(Cl)cc(-c2ccc(Cl)c(Cl)c2)c(Cl)c1Cl [4-OH-PCB-107]", "TARGET": "MAO-B (Homo sapiens, UniProt P27338)", "LOAEL toward MAO-B, µM": 10}
{"COMPOUND": "Clc1ccc(-c2ccc(Cl)cc2Cl)cc1 [PCB-28]", "TARGET": "MAO-B (Homo sapiens, UniProt P27338)", "LOAEL toward MAO-B, µM": 10}
{"COMPOUND": "Clc1ccc(-c2ccc(Cl)c(Cl)c2Cl)cc1Cl [PCB-105]", "TARGET": "MAO-B (Homo sapiens, UniProt P27338)", "LOAEL toward MAO-B, µM": 1}
{"COMPOUND": "Clc1ccc(-c2ccc(Cl)c(Cl)c2)cc1Cl [PCB-77]", "TARGET": "MAO-B (Homo sapiens, UniProt P27338)", "LOAEL toward MAO-B, µM": 10}

Field LOAEL toward MAO-B (entry Clc1ccc(-c2cc(Cl)c(Cl)cc2Cl)cc1Cl [PCB-118] ) reads 10
